assay: Cynomolgus monkey tolerability, kidney and liver function markers (Example 34); conditions: cynomolgus monkeys, 35 mg/kg subcutaneously, day 44
Measure Name: TG (mg/dL)
State the answer as a number, implicitly in mg/dL.

Example cases with answers are listed next.
{"Substance": "1198440 (AAGTGTATGTCAGAAG; cEt, 2'-MOE, 5-methylcytosine, phosphorothioate modifications, further chemistry not given here) [compound 1198440]", "Units Of Measure": "mg/dL", "TG": 30}
{"Substance": "1198872 (TGTATGTCAGAAGAGT; chemically modified gapmer, further chemistry not given here) [compound 1198872]", "Units Of Measure": "mg/dL", "TG": 19}
{"Substance": "1198605 (GTAATATTGCAATCTG; modified gapmer, further chemistry not given here) [compound 1198605]", "Units Of Measure": "mg/dL", "TG": 25}

Please supply the value of reported TG for the item 1198623 (CTAAGTAAGGTTTCCC; modified gapmer, further chemistry not given here) [compound 1198623]
34

Please supply the value of reported TG for the item 1198439 (AGTGTATGTCAGAAGA; sugar, 5-methylcytosine, phosphorothioate modifications, further chemistry not given here) [compound 1198439]
28

Please supply the value of reported TG for the item 958499 (ATTAGAGTATGTGGCA; 3-10-3 cEt gapmer, further chemistry not given here) [compound 958499]
41

Please supply the value of reported TG for the item 1197270 (TTAAAGTGTATGTCAG; cEt gapmer with 2'-OMe nucleoside, phosphorothioate, further chemistry not given here) [compound 1197270]
31
